- TEST NAME: qHTS assay to identify small molecule antagonists of the progesterone receptor (PR) signaling pathway - cell viability counter screen (AID 1346798); note: nearly all actives have a fitted effect of over 50% in size
- PARTICULARS: PR-UAS-bla HEK293T viability, CellTiter-Glo luminescence, 16 h; series mostly up to 92.4 µM
Inconclusive results are not listed. Active and inactive are the calls of the source. Calls come from the whole dose curve; as a rule, active = well fitted cell-killing curve with a large enough effect in the repeat runs; inconclusive = weak or mixed curves, or effect the other way; inactive = no such curve, though single readings can be large or run the other way.
Labels: yes (1) (active), no (0) (inactive)

[
  {
    "COMPOUND": "C[C@H]1O[C@@H](O[C@H]2CC[C@@]3(C)[C@H](CC[C@@H]4[C@@H]3C[C@@H](O)[C@]3(C)[C@@H](C5=CC(=O)OC5)CC[C@]43O)C2)C[C@H](O)[C@@H]1O[C@H]1C[C@H](O)[C@H](O[C@H]2C[C@H](O)[C@H](O[C@@H]3O[C@H](CO)[C@@H](O)[C@H](O)[C@H]3O)[C@@H](C)O2)[C@@H](C)O1",
    "LABEL CLASS": "yes (1)"
  },
  {
    "COMPOUND": "c1ccc(C[P+](c2ccccc2)(c2ccccc2)c2ccccc2)cc1",
    "LABEL CLASS": "no (0)"
  },
  {
    "COMPOUND": "CC(=O)N(C)C",
    "LABEL CLASS": "no (0)"
  },
  {
    "COMPOUND": "CCC(=O)OC/C=C(\\C)CCC=C(C)C",
    "LABEL CLASS": "no (0)"
  },
  {
    "COMPOUND": "O=C(CCCCCCCCc1cccnc1)N1CCC(C=C(c2ccccc2)c2ccccc2)CC1",
    "LABEL CLASS": "yes (1)"
  },
  {
    "COMPOUND": "Nc1cccnc1N",
    "LABEL CLASS": "no (0)"
  },
  {
    "COMPOUND": "COc1ccc(OC)c(N=Nc2c(O)ccc3ccccc23)c1",
    "LABEL CLASS": "no (0)"
  },
  {
    "COMPOUND": "O=C1Cc2ccccc2C1",
    "LABEL CLASS": "no (0)"
  },
  {
    "COMPOUND": "Cc1ccc2sc3cccc(C)c3c2c1",
    "LABEL CLASS": "no (0)"
  },
  {
    "COMPOUND": "CC(=O)[C@]1(O)Cc2c(O)c3c(c(O)c2[C@@H](O[C@H]2C[C@H](N)[C@H](O)[C@H](C)O2)C1)C(=O)c1ccccc1C3=O",
    "LABEL CLASS": "no (0)"
  },
  {
    "COMPOUND": "C=C1C(CCl)(CCl)C2(Cl)C(Cl)C(Cl)C1(Cl)C2(Cl)Cl (stereo not given)",
    "LABEL CLASS": "yes (1)"
  },
  {
    "COMPOUND": "O[Si](c1ccccc1)(c1ccccc1)c1ccccc1",
    "LABEL CLASS": "no (0)"
  },
  {
    "COMPOUND": "O=C1CCCCCCCCCCCCCC1",
    "LABEL CLASS": "no (0)"
  },
  {
    "COMPOUND": "Oc1ccc(C2(c3ccc(O)c(C4CCCCC4)c3)CCCCC2)cc1C1CCCCC1",
    "LABEL CLASS": "yes (1)"
  },
  {
    "COMPOUND": "CC(C)=CCC[C@H](C)CC=O",
    "LABEL CLASS": "no (0)"
  },
  {
    "COMPOUND": "CN(C[C@@H](CC[N+]12CCC(C3CCCCC3)(CC1)CC2)c1ccc(Cl)c(Cl)c1)C(=O)c1cc(C(F)(F)F)cc(C(F)(F)F)c1",
    "LABEL CLASS": "yes (1)"
  },
  {
    "COMPOUND": "O=C(c1ccccc1)c1ccc(Cl)cc1",
    "LABEL CLASS": "no (0)"
  },
  {
    "COMPOUND": "C=CC(C)(C)O",
    "LABEL CLASS": "no (0)"
  },
  {
    "COMPOUND": "CCc1cccc(C)c1N(C(=O)C(=O)O)C(C)COC (stereo not given)",
    "LABEL CLASS": "no (0)"
  },
  {
    "COMPOUND": "O=C1CCC(=O)N1",
    "LABEL CLASS": "no (0)"
  }
]

* * *

# activity change, negative = inhibition per record follows
- TARGET OR SYSTEM: Nuclear receptor ROR-gamma (Homo sapiens) (UniProt P51449)
- TEST NAME: qHTS assay to identify small molecule antagonists of the retinoid-related orphan receptor gamma (ROR-gamma) signaling pathway (AID 1159521;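 note: CHO cells with doxycycline inducible ROR-gamma driving an RORE luciferase reporter; top concentration of the series differs between compounds; % is set by controls: 0 for no effect and ±100 for the full control effect; nearly all actives have a fitted effect of over 50% in size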)
- PARTICULARS: Tet-on RORgamma CHO cells, RORE-luciferase, 16 h; series mostly up to 92.4 µM
Results filed as inconclusive are left out. Active and inactive are the calls of the source. Calls follow the shape of the dose curve; as a rule, active = well fitted inhibition curve with a large enough effect in the repeat runs; inconclusive = weak or mixed curves, or effect the other way; inactive = no such curve, though single readings can be large or run the other way.
RESULT TYPE: activity change, negative = inhibition

[
  {
    "MOLECULE": "O=C(O)CN(CCCN(CC(=O)O)CC(=O)O)CC(=O)O",
    "RESULT TYPE": "activity change, negative = inhibition",
    "EXPERIMENTAL VALUE": "-18.7% [at 19 µM] (inactive)"
  },
  {
    "MOLECULE": "CCCCCCCCCCCCS(=O)(=O)Cl",
    "RESULT TYPE": "activity change, negative = inhibition",
    "EXPERIMENTAL VALUE": "0.574% [at 19 µM] (inactive)"
  },
  {
    "MOLECULE": "C=C[Si](C)(C)Cl",
    "RESULT TYPE": "activity change, negative = inhibition",
    "EXPERIMENTAL VALUE": "-27.2% [at 8.39 µM] (inactive)"
  },
  {
    "MOLECULE": "COc1cc2ncnc(Nc3cccc(Cl)c3)c2cc1OC",
    "RESULT TYPE": "activity change, negative = inhibition",
    "EXPERIMENTAL VALUE": "-11.5% [at 19 µM] (inactive)"
  },
  {
    "MOLECULE": "C=CC(=O)OCCOC1C2CCC1C1CC=CC12 (stereo not given)",
    "RESULT TYPE": "activity change, negative = inhibition",
    "EXPERIMENTAL VALUE": "0.993% [at 19 µM] (inactive)"
  }
]

* * *

- TEST NAME: qHTS assay to identify small molecule agonists of the constitutive androstane receptor (CAR) signaling pathway - cell viability counter screen (AID 1224836); note: nearly all actives have a fitted effect of over 45% in size
- PARTICULARS: HepG2-CYP2B6-hCAR viability, CellTiter-Fluor, 23 h, PK11195 added to every well; series mostly up to 92.4 µM
Inconclusive results are not listed. Active and inactive are the calls of the source. The call rests on the fitted dose curve; in most records, active means well fitted cell-killing curve with a large enough effect in the repeat runs; inconclusive means weak or mixed curves, or effect the other way; inactive means flat fitted curve, though single readings scatter.
Labels: active, inactive

[
  {
    "SMI": "Cc1ccc(N=Nc2c(O)ccc3ccccc23)c(C)c1",
    "LABEL CLASS": "inactive"
  },
  {
    "SMI": "C=Cc1ccc(O)c(OC)c1",
    "LABEL CLASS": "inactive"
  },
  {
    "SMI": "NCc1ccco1",
    "LABEL CLASS": "inactive"
  },
  {
    "SMI": "Cc1cc(Br)ccc1NC(=O)CCl",
    "LABEL CLASS": "active"
  },
  {
    "SMI": "CCOC(=O)OC(=O)OCC",
    "LABEL CLASS": "inactive"
  },
  {
    "SMI": "CN(C/C=C/c1ccccc1)Cc1cccc2ccccc12",
    "LABEL CLASS": "inactive"
  },
  {
    "SMI": "Cc1ccc(S(=O)(=O)C(I)I)cc1",
    "LABEL CLASS": "active"
  },
  {
    "SMI": "CN1CCN(CCCN2c3ccccc3Sc3ccc(Cl)cc32)CC1",
    "LABEL CLASS": "inactive"
  }
]

* * *

- TEST NAME: A CellTox Green Cytotoxicity Assay to monitor cytotoxicity in HepG2 cells - 40 hour (AID 1224879); note: nearly all actives have a fitted effect of over 40% in size; note: potency is the fitted concentration of half-maximal effect
- PARTICULARS: CellTox Green fluorescence; series mostly up to 76.8 µM
Results filed as inconclusive are left out. Activity calls are given as the source filed them. Calls come from the whole dose curve; as a rule, active = well fitted activation curve with a large enough effect in the repeat runs; inconclusive = weak or mixed curves; inactive = flat fitted curve, though single readings scatter.

[
  {
    "COMPOUND": "CC/C(=C(/c1ccc(O)cc1)c1ccc(OCCN(C)C)cc1)c1ccccc1",
    "Potency": "12.9 µM (active)"
  },
  {
    "COMPOUND": "O=C(CCN1CCC(c2ccccc2)C1)c1ccc2c(c1)OCCO2 (configuration not stated)",
    "Potency": "26.8 µM (active)"
  },
  {
    "COMPOUND": "CC(C)(c1ccc(Oc2ccc(N)cc2)cc1)c1ccc(Oc2ccc(N)cc2)cc1",
    "Potency": "inactive"
  },
  {
    "COMPOUND": "c1ccc(-c2ccccc2-c2ccccc2)cc1",
    "Potency": "inactive"
  },
  {
    "COMPOUND": "O=C(O)C[C@H](O)C[C@H](O)/C=C/c1c(C2CC2)nc2ccccc2c1-c1ccc(F)cc1",
    "Potency": "2.61 µM (active)"
  },
  {
    "COMPOUND": "CSc1ccc(O)cc1C",
    "Potency": "inactive"
  },
  {
    "COMPOUND": "CCCCCCCCCCCC(=O)Cl",
    "Potency": "inactive"
  }
]

The measurements presented in this section are drawn from PubChem BioAssay (Tox21).
